Please go through the items and note down their normalized growth.
Test: chemical genetic growth profiling, strain panel (AID 1159580);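 further: tested at 20 µM; growth read once vehicle control cultures reached saturation at 30 °C; 1 = growth at the plate median or of vehicle wells; lower values mean less growth of the strain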
Conditions: S. cerevisiae deletion strains, growth OD, locus YMR263W, strain SAP30, stronger effect = lower value
Hit rate of the full screen: of about 5,500 compounds, about 2,000 (36%) were called active. Not shown: some 18% with an inconclusive outcome. This is one part of the list.
Simply state the number, no unit and no words.

Dear colleague, please send me the reported normalized growth for O=C(O)CSCc1ccccc1 when you can.
1

Dear colleague, please send me the reported normalized growth for N[C@@H](Cc1ccc(N(CCCl)CCCl)cc1)C(=O)O when you can.
0.982

Dear colleague, please send me the reported normalized growth for O=C(O)c1cncc(C#Cc2ccccc2)c1 when you can.
0.981

Dear colleague, please send me the reported normalized growth for S=c1nc2[nH]c3ccccc3c2n[nH]1 when you can.
1.03

Dear colleague, please send me the reported normalized growth for Cc1oc(C(C)(C)C)cc1C(=O)Nc1ccc([N+](=O)[O-])cc1 when you can.
0.943

Dear colleague, please send me the reported normalized growth for CC#C[C@]1(O)CC[C@H]2[C@@H]3CCC4=CC(=O)CCC4=C3[C@@H](c3ccc(N(C)C)cc3)C[C@@]21C when you can.
0.984

Dear colleague, please send me the reported normalized growth for COC(=O)[C@@H]1OC(=O)C2OC23[C@@]1(C)CCC1[C@]2(C)C(C[C@H](O)[C@]13C)C(C)(C)[C@H](OC(C)=O)C[C@@H]2OC(C)=O (stereo partly drawn) when you can.
1.01

Dear colleague, please send me the reported normalized growth for CCC(C)C(=O)OC1CC2(C)C(c3ccoc3)OC(=O)CC23OC2(C)OC34C(OC(=O)C(C)C)C3(O)C(OC(=O)C5(C)OC5C)C5(C)CC3(O)C(C)(C5C(=O)OC)C14O2 (stereo not drawn) when you can.
1.04

Origin of values: PubChem BioAssay AID1159580
